Just for reference, ChEMBL document CHEMBL3774391 is where these values come from.

Experiment: Acute toxicity in po dosed overnight fasted Wistar rat
Format: organism-based
Settings: in vivo
assay endpoint: LD50

Supply LD50 value. Item: CN1CCC(C(=O)c2cncc(-c3cc(Cl)cc(Cl)c3)c2)C1=O (stereo unspecified)
> 2000 mg/kg

* * *

Assay: Volume of distribution in Wistar rat at 5 mg/kg, iv
Assay type: ADME, organism-based
Settings: in vivo
assay endpoint: Vd (L)
Please respond with the number in L and leave the unit unwritten.

Supply Vd value. Item: CN1CCC(C(=O)c2cncc(-c3cc(Cl)cc(Cl)c3)c2)C1=O (stereo unspecified)
23.2

* * *

Experiment: Tmax in Wistar rat at 5 mg/kg, po
Type: ADME, organism-based
Settings: in vivo
assay endpoint: Tmax (h)
Please respond with the number in h and leave the unit unwritten.

Supply Tmax value. Item: CN1CCC(C(=O)c2cncc(-c3cc(Cl)cc(Cl)c3)c2)C1=O (stereo unspecified)
1
